These measurements were taken from ChEMBL document CHEMBL4406885.

Test system: Lipid bilayer
Assay: Binding affinity to DPPG large unilamellar vesicles at 298 kelvin by ITC method
Consider the following molecules; for each one, report its pK.

CCCCCCCCCCCC(=O)NCCC(NC(=O)CCCCCCCCCCC)C(=O)O (stereo not given); 5.14 to 7.38
CCCCCCCCCCCCCCCC(=O)NCC(NC(=O)CCCCCCCCCCCCCCC)C(=O)O (stereo not given); 4.26 to 6.99
CCCCCCCCCCCC(=O)NCC(NC(=O)CCCCCCCCCCC)C(=O)O (stereo not given); 7.18
CCCCCCCCCC(=O)NCC(NC(=O)CCCCCCCCC)C(=O)O (stereo not given); 6.59 to 7.4

Could you now look at the following molecule, please?
pK recorded for this molecule, CCCCCCCCCC(=O)NCCC(NC(=O)CCCCCCCCC)C(=O)O (stereo not given) , is 5.76 to 7.37
